Source listed as PubChem BioAssay AID2685.

experimental-protocol: qHTS Assay for Lipid Storage Modulators in Drosophila S3 Cells; also: potency is read from the fitted curve at half-maximal effect
conditions-used: BODIPY lipid droplet fluorescence, 18-24 h, cells fed with added oleic acid; series mostly up to 46.1 µM
About 2,100 (0.66%) of roughly 320,000 compounds were called active. Roughly 53% stayed inconclusive and do not appear here. This excerpt belongs to a sample that is enriched for actives.
property-label: Potency

COC(=O)Cn1c(=NC(=O)c2cc(OC)cc(OC)c2)sc2cc(OC)ccc21 :: inactive
CC(=O)CC(=O)Nc1cccc2c1CCCC2 :: 0.58 µM (active)
CC(=O)NS(=O)(=O)c1ccc(NC(=O)c2cc(-c3ccc(C)cc3)nc3ccccc23)cc1 :: inactive
CC(C)=CC(O)C/C(C)=C/COc1ccc2ccc(=O)oc2c1 (stereo unspecified) :: inactive
CCC(C)(C)n1nnnc1C(c1ccccc1)N1CCN(C2CCCC2)CC1 (stereo unspecified) :: inactive
COc1ccc(/C=C2/SC(=S)N(CCC(=O)O)C2=O)cc1 :: inactive
CCCCC(CC)C(=O)Oc1ccc(O)c(C(C)(C)C)c1 (stereo unspecified) :: 25.9 µM (active)
CC(=O)N/N=C(\C)CC(=O)Nc1cccc2c1CCCC2 :: inactive

Record summary for CC(=C\c1ccccc1)/C=C1/SC(=S)N(CCC(=O)O)C1=O : reported Potency = inactive

Record summary for CCOC(=O)C1=C(C)NC2=C(C(=O)CCC2)C1c1cccs1 (stereo unspecified) : reported Potency = inactive

Record summary for CC(C)(C)c1cc(OC(=O)c2ccncc2)ccc1O : reported Potency = inactive

###

experimental-protocol: qHTS Assay for Lipid Storage Modulators in Drosophila S3 Cells
conditions-used: BODIPY lipid droplet fluorescence, 18-24 h, cells fed with added oleic acid; series mostly up to 46.1 µM
In all, about 320,000 compounds went through this assay and about 2,100 (0.66%) were called active. Inconclusive results (about 53%) are left out. The call rests on the fitted dose curve; in most records, active means well fitted inhibition curve with a large enough effect in the signal ratio, with a control signal flat (not every such curve was filed as active); inconclusive means small, poorly fitted or top-dose-only effect, or effect the other way, or a change in a side signal; inactive means flat fitted curve, though single readings scatter; the % refers to the signal ratio. For the sample, actives were picked, then their nearest neighbours and some compounds at random.
Pick from active, inactive when you respond.

O=C(Cn1cccc1C(=O)c1ccccc1)NCCCN1CCOCC1 :: inactive
COc1cc(OC)c(/C=N/NC(=O)Cn2nc([N+](=O)[O-])cc2C)c(OC)c1 :: inactive
O=C(O)Cc1sc(Nc2cccc3ccccc23)nc1-c1ccc(F)cc1 :: inactive
COC(=O)CN1C(=S)N(C)C(=O)/C1=C/c1cccs1 :: inactive
O=C(c1cccs1)N1CCC(c2nc3c(nnn3Cc3cccc(Cl)c3)c(=O)[nH]2)CC1 :: inactive
CCOC(=O)c1ccc(N2C(=O)c3n[nH]c(C)c3C2c2ccc(OC)cc2)cc1 (stereo unspecified) :: inactive

Any idea what this test logged for CC(C)CNC(=O)CSc1nnc(-c2ccccn2)n1Cc1ccccc1 ? inactive

Any idea what this test logged for O=C(O)Cc1sc(Nc2cccc3ccccc23)nc1-c1ccc(Cl)cc1 ? inactive

Any idea what this test logged for NCc1cc2c3c(c1)CCCN3CCC2 ? inactive

Any idea what this test logged for CC(=O)Nc1ccc(NC(=O)COC(=O)/C=C/c2ccc3c(c2)OCO3)cc1 ? active

Any idea what this test logged for CSC1=NCCN1C(=O)c1c(F)cccc1F ? inactive

###

experimental-protocol: qHTS Assay for Lipid Storage Modulators in Drosophila S3 Cells
conditions-used: BODIPY lipid droplet fluorescence, 18-24 h, cells fed with added oleic acid; series mostly up to 46.1 µM
The campaign covered roughly 320,000 compounds. About 2,100 (0.66%) were called active. About 53% were inconclusive and are not listed. Calls come from the whole dose curve; as a rule, active = well fitted inhibition curve with a large enough effect in the signal ratio, with a control signal flat (not every such curve was filed as active); inconclusive = small, poorly fitted or top-dose-only effect, or effect the other way, or a change in a side signal; inactive = flat fitted curve, though single readings scatter; the % refers to the signal ratio. Many of the other results were omitted from the sample, so actives are more common in it than they were.
Pick from true (active), false (inactive) when you respond.

Look over these answered cases.
COc1ccc(C/C(N)=N/n2cnnc2)cc1Cl :: false
CCOC(=O)C1CCN(S(=O)(=O)c2ccc(OC)c(OC)c2)CC1 :: false
COc1ccc2c(CCNC(N)=S)c[nH]c2c1 :: false
COc1ccc(N2C(=O)CSC2c2ccccc2)cc1 (stereo not given) :: false
CC(C)c1c(C(=O)N/N=C/c2cccnc2)nnn1-c1nonc1N :: false

Any idea what this test logged for CCOC(=O)Cn1nnc(-c2ccc(OCC(C)C)cc2)n1 ? false

Any idea what this test logged for CC(C)(C)c1ccc(/C=N/NC(=O)c2ccccn2)cc1 ? false

Any idea what this test logged for CN(C)c1ccc(/C=N/NC(=O)c2ccnn2C)cc1 ? false

Any idea what this test logged for COc1nn(CC(=O)N2N=C(C)CC2(O)C(F)F)cc1[N+](=O)[O-] (stereo not given) ? false

Any idea what this test logged for CCCS(=O)(=O)N1CCN(C(=O)c2cccnc2)CC1 ? false

Any idea what this test logged for Cc1ccc(NC2OC(CO)C(O)C2O)cc1[N+](=O)[O-] (stereo not given) ? false

Any idea what this test logged for Cc1ccc(S(=O)(=O)N(C)c2nc3ccccc3[nH]c2=S)cc1 ? false

Any idea what this test logged for Cn1c(C(=O)Nc2ccccc2)cc2sccc21 ? false
